test_target: T1, human gastric inhibitory peptide receptor (GIPR) (human, UniProt P48546 22-466)
T1 sequence (looked up): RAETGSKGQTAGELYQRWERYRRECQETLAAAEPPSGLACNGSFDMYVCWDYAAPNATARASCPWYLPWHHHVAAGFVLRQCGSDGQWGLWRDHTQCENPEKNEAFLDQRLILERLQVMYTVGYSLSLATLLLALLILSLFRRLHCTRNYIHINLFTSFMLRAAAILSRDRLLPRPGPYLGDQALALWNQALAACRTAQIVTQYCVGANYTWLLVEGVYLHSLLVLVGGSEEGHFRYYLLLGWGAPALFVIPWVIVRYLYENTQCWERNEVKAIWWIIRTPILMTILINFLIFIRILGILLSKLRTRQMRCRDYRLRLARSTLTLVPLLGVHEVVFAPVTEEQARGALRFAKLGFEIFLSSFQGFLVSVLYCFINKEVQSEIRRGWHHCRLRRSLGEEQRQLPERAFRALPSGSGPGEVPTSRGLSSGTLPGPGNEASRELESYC
measurement_description: cell-based or functional assay
Square brackets hold non-standard residues; d marks the D form. Ends that are not written are not given here. αMePhe(2-F) = C[C@](N)(Cc1ccccc1F)C(=O)O; αMeF = C[C@](N)(Cc1ccccc1)C(=O)O; Aib = CC(C)(N)C(=O)O
Label scheme, based on hGIPR cAMP Rel EC50: bottom bin (below 0.05 nM), middle bin (0.05 nM to below 0.1 nM), top bin (0.1 nM or more)

# binder, answer_label
measured = [
    ("Y[Aib]EGT[αMePhe(2-F)]TSDYSIXLDEKAQ[Aib]EFIQYLIEGGPSSGAPPPS-NH2 (not fully specified (residues 13, 17); printed as Y-Aib-EGT-αMeF(2F)-TSDYSI-αMeF-LDEK((2-[2-(2-Amino-ethoxy)-ethoxy]-acetyl)2-(γ-Glu)-CO-(CH2)18-CO2H)AQ-Aib-EFIQYLIEGGPSSGAPPPS-NH2) [Example 146]", "middle bin"),
]

Ask | Into which category would you place YXEGTXTSDQSIXLDEKAQXEFIXYLIEGGPSSGAPPPS (Y-Aib-EGT-αMeF(2F)-TSDQSI-αMeF-LDEK((2-[2-(2-Amino-ethoxy)-ethoxy]-acetyl)2-(γ-Glu)-CO-(CH2)18-CO2H)AQ-Aib-EFI-(D-Glu)-YLIEGGPSSGAPPPS-NH2) [Example 187] ?
Reply | bottom bin

Ask | Exam item: assign HXEGTXTSDXSIXLDEKAQXEFIXYLIEGGPSSGAPPPS (H-Aib-EGT-αMeF(2F)-TSD-3Pal-SI-αMeF-LDEK((2-[2-(2-Amino-ethoxy)-ethoxy]-acetyl)2-(γ-Glu)-CO-(CH2)18-CO2H)AQ-Aib-EFI-(D-Glu)-YLIEGGPSSGAPPPS-NH2) [Example 190] to the correct category.
Reply | top bin

Ask | Exam item: assign Y[Aib]EGT[αMePhe(2-F)]TSDYSIXLDEKAQ[Aib]EFIPYLIEGGPSSGAPPPS-NH2 (not fully specified (residues 13, 17); printed as Y-Aib-EGT-αMeF(2F)-TSDYSI-αMeF-LDEK((2-[2-(2-Amino-ethoxy)-ethoxy]-acetyl)2-(γ-Glu)-CO-(CH2)18-CO2H)AQ-Aib-EFIPYLIEGGPSSGAPPPS-NH2) [Example 151] to the correct category.
Reply | top bin

Ask | Please indicate the class for YXEGTXTSDYSILLDEKAQXEFIXYLIEGGPSSGAPPPS (Y-Aib-EGT-αMeF(2F)-TSDYSILLDEK((2-[2-(2-Amino-ethoxy)-ethoxy]-acetyl)2-(γ-Glu)-CO-(CH2)18-CO2H)AQ-Aib-EFI-(D-Glu)-YLIEGGPSSGAPPPS-NH2) [Example 226] based on its hGIPR cAMP Rel EC50.
Reply | bottom bin

Ask | Field: class (hGIPR cAMP Rel EC50) — entry: Y[Aib]EGT[αMePhe(2-F)]TSDYSIXLDEKAQ[Aib]EFIAYLIEGGPSSGAPPPS-NH2 (not fully specified (residues 13, 17); printed as Y-Aib-EGT-αMeF(2F)-TSDYSI-αMeF-LDEK((2-[2-(2-Amino-ethoxy)-ethoxy]-acetyl)2-(γ-Glu)-CO-(CH2)18-CO2H)AQ-Aib-EFIAYLIEGGPSSGAPPPS-NH2) [Example 148]
Reply | bottom bin

Ask | Which class does Y[Aib]EGT[αMeF]TSDYSIXLDKKAQ[Aib]IFIEYLIEGGPSSGAPPPS-NH2 (not fully specified (residues 13, 17); printed as Y-Aib-EGT-αMeF-TSDYSI-αMeF-LDKK((2-[2-(2-Amino-ethoxy)-ethoxy]-acetyl)2-(γ-Glu)-CO-(CH2)18-CO2H)AQ-Aib-IFIEYLIEGGPSSGAPPPS-NH2) [Example 141] fall in?
Reply | top bin

Ask | Lab note: which band did YXEGTXTSDHSIXLDEKAQXTFIXYLIEGGPSSGAPPPS (Y-Aib-EGT-αMeF(2F)-TSDHSI-αMeF-LDEK((2-[2-(2-Amino-ethoxy)-ethoxy]-acetyl)2-(ϵK)-CO-(CH2)18-CO2H)AQ-Aib-TFI-(D-Glu)-YLIEGGPSSGAPPPS-NH2) [Example 175] land in?
Reply | middle bin

Ask | Hey, which category is YXEGTXTSDHSIXLDXKAQXTFIXYLIEGGPSSGAPPPS (Y-Aib-EGT-αMeF(2F)-TSDHSI-αMeF-LD-Dab-K((2-[2-(2-Amino-ethoxy)-ethoxy]-acetyl)2-(γ-Glu)-CO-(CH2)18-CO2H)AQ-Aib-TFI-(D-Glu)-YLIEGGPSSGAPPPS-NH2) [Example 172] in, do you know?
Reply | top bin

Ask | Please report the category associated with Y[Aib]EGT[αMePhe(2-F)]TSDHSIXLDEKAQ[Aib]EFIEYLIEGGPSSGAPPPS-NH2 (not fully specified (residues 13, 17); printed as Y-Aib-EGT-αMeF(2F)-TSDHSI-αMeF-LDEK((2-[2-(2-Amino-ethoxy)-ethoxy]-acetyl)2-(γ-Glu)-CO-(CH2)18-CO2H)AQ-Aib-EFIEYLIEGGPSSGAPPPS-NH2) [Example 154] , nothing else.
Reply | bottom bin
